These data points were gathered from patent US4073902A.

# Tested on: Shigella flexneri 11836
# experiment.notes: oral ED50, systemic infection in mice
# Type: in vivo, Shigella flexneri; female MF 2 mice
# run.parameters: p.o., 2 doses
property.label: ED50 (mg/kg)
Numbers only here, please. The scale is mg/kg.

Task item: Supply ED50 value. Item: COC1=C(C(=O)O)N2C(=O)[C@@H](NC(=O)[C@H](N)C3=CCC=CC3)[C@H]2SC1 [compound I]
Reply: 25

Task item: Supply ED50 value. Item: COC1=C(C(=O)O)N2C(=O)[C@@H](NC(=O)[C@H](N)c3ccccc3)[C@H]2SC1 [compound II]
Reply: 20

Task item: Supply ED50 value. Item: CC1=C(C(=O)O)N2C(=O)[C@@H](NC(=O)[C@H](N)C3=CCC=CC3)[C@H]2SC1 [cephradine]
Reply: 11

Task item: Supply ED50 value. Item: CC1=C(C(=O)O)N2C(=O)[C@@H](NC(=O)[C@H](N)c3ccccc3)[C@H]2SC1 [cephalexin]
Reply: 7
